experimental target: T1, human GIP receptor (human) (UniProt P48546)
T1 sequence (looked up): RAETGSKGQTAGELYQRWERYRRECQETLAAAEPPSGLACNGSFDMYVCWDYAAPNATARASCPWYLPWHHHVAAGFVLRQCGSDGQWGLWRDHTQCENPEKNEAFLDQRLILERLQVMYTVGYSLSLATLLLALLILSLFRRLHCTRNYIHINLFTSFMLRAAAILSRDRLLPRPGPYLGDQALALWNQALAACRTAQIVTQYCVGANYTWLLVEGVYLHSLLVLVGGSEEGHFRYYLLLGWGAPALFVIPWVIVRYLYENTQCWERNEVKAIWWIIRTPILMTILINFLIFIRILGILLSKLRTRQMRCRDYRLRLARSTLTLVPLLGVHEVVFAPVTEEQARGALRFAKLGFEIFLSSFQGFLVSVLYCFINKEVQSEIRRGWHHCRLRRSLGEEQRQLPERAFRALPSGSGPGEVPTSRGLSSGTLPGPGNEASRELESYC
assay comment: cell-based or functional assay
Starred links: 1 amine or outer side, 2 acyl side, 3 side chain; linkers in the order of their positions; H or OH if unused. Non-standard residues stand in square brackets, D forms with d. Groups on a side chain read outwards from the residue. No end group written: not given here. *: point of attachment. C20 diacid = O=C(O)CCCCCCCCCCCCCCCCCCC(=O)*; αMePhe(2-F) = C[C@](N)(Cc1ccccc1F)C(=O)O; γGlu = O=C(O)[C@H](CCC(=O)[*:2])N[*:1]; AEEA = NCCOCCOCC(=O)O; Aib = CC(C)(N)C(=O)O
measured property: cAMP Rel EC50 (in the presence of 1% HSA) (nM)
Please respond with the number in nM and leave the unit unwritten.

Consider the following illustrative entries.
binder	assay result
YXQGTFTSDFSKXLDKKAQXAFIQWLLEGGPSSGAPPPSEG (synthetic construct; SITE 2: note = 2-Aminoisobutyric Acid; SITE 13: note = alpha-methyl-leucine; SITE 17: note = Lysine is chemically modified through conjugation of the epsilon-amino group of the Lysine side chain with (2-[2-(2-Amino-ethoxy)-ethoxy]-acetyl)-(gamma-Glu)-CO-(CH2) 18-CO2H; SITE 20: n) [Example 39]	30.5
Y[Aib]QGT[αMePhe(2-F)]TSDYSKLLDKIAQK([AEEA-γGlu-C20 diacid])AFIEYLLEGGPSSGEPPPSEG-NH2 [Example 295]	61.1
YXQGTXTSDXXIXLDXKAQXEFIEXLIEGGPPSXXPPPSGGGE (Lys acylated with AEEA-γGlu-C18 diacid; non-natural residues; C-amide; synthetic construct; SITE 2: note = 2-Aminoisobutyric Acid; SITE 6: note = alpha-methyl-2-fluoro-L-phenylalanine; SITE 10: note = 3-(4-Pyridyl)-L-alanine; SITE 11: note = alpha-methyl-L-serine; SITE 13: note = alpha-methyl-leucine; SITE 16: note = L-ornithine; SITE 17: note = Lysine is chemically mo) [Example 1199]	0.733

input: // cAMP Rel EC50 (in the presence of 1% HSA) lookup, key: YXQGTFTSDFSXXLDKKAQXAFIEYLLEGGPSSGAPPPSGT (Aib, Orn, αMeL; (γGlu)2-C18 diacid on Lys; C-terminal amide; synthetic construct; SITE 2: note = 2-Aminoisobutyric Acid; SITE 12: note = L-ornithine; SITE 13: note = alpha-methyl-leucine; SITE 17: note = Lysine is chemically modified through conjugation of the epsilon-amino group of the Lysine side chain with (gamma-Glu)2-CO-(CH2)16-CO2H; SITE 20: note = 2-Am) [Example 260]
output: 12.4

input: Lookup YXQGTFTSDFSKXLDKKAQXAFIEYLLAGGPSSGAPPPSEG (synthetic construct; SITE 2: note = 2-Aminoisobutyric Acid; SITE 13: note = alpha-methyl-leucine; SITE 17: note = Lysine is chemically modified through conjugation of the epsilon-amino group of the Lysine side chain with (2-[2-(2-Amino-ethoxy)-ethoxy]-acetyl)-(gamma-Glu)-CO-(CH2) 18-CO2H; SITE 20: n) [Example 10]
output: 43

input: Moving on to YXQGTFTSDFSKXLDKKAQXAFIEYLLEGGPSSGAPPPGEG (synthetic construct; SITE 2: note = 2-Aminoisobutyric Acid; SITE 13: note = alpha-methyl-leucine; SITE 17: note = Lysine is chemically modified through conjugation of the epsilon-amino group of the Lysine side chain with (2-[2-(2-Amino-ethoxy)-ethoxy]-acetyl)2-(gamma-Glu)-CO-(CH2 )18-CO2H; SITE 20:) [Example 17]
output: 91.7

The origin of these recorded values is patent US20240270821A1.
